meta.source: patent US20170137512A1

Here the recorded IC50, IFNγ read out, CCR7-CD45RA- T cells stimulated with anti-CD3 is given for each entry.
- Target or test system: human Kv1.3 (Homo sapiens, UniProt P22001 1-575)
- Sequence (P22001 whole entry): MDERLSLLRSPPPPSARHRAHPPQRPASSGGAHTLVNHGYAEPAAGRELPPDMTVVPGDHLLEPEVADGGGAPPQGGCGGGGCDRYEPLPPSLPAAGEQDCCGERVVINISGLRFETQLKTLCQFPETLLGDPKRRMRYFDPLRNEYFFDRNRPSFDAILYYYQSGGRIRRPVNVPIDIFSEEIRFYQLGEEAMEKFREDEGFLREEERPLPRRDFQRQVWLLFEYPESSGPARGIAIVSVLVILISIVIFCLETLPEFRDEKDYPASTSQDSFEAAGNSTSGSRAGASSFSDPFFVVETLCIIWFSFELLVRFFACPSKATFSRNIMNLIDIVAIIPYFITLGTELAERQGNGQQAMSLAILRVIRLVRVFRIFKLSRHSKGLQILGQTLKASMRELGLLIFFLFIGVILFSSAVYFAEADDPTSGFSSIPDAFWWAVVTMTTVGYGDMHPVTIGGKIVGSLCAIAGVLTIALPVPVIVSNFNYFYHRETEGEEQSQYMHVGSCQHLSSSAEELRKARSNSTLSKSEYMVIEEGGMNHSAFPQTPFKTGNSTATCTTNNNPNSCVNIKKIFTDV
- Procedure summary: cell-based or functional assay
# unit: pM | format: bare number

| Binder | Measured value |
| --- | --- |
| A019400014 (other, Biparatopic Nanobody construct (family 1 - family 12); also called A019400003-35GS-A0194009G09; A019400011) EVQLVESGGGLVQAGGSLSLSCTASGGTFRNFGMGWFRQAQGKEREFVAAISRTGGHTYYQDSVKGRFTISKDNAKNILSLQMNSLKPEDTAVYYCAARFRFGDGTYYYQRAFYDFWGQGTLVTVSSGGGGSGGGGSGGGGSGGGGSGGGGSGGGGSGGGGSEVQLVESGGGLVQAGGSLGLSCSASGLLFSRNSAGWYRQAPGKQREFVARIRMGGSINYADTVKGRFTISRDNAKNTVYLQMNSLKPEDTAVYYCSSWRTGFYEYWGQGTLVTVSS | 320 |
| A019400012 (other) EVQLVESGGGLVQAGGSLGLSCSASGLLFSRNSAGWYRQAPGKQREFVARIRMGGSINYADTVKGRFTISRDNAKNTVYLQMNSLKPEDTAVYYCSSWRTGFYEYWGQGTLVTVSSGGGGSGGGGSGGGGSGGGGSGGGGSGGGGSGGGGSEVQLVESGGGLVQAGGSLSLSCTASGGTFRNFGMGWFRQAQGKEREFVAAISRTGGHTYYQDSVKGRFTISKDNAKNILSLQMNSLKPEDTAVYYCAARFRFGDGTYYYQRAFYDFWGQGTLVTVSS | 310 |
| A019400013 (VHH, Bivalent Nanobody construct (family 12 - family 12), without Alb11; also called A0194009G09-35GS-A0194009G09) EVQLVESGGGLVQAGGSLGLSCSASGLLFSRNSAGWYRQAPGKQREFVARIRMGGSINYADTVKGRFTISRDNAKNTVYLQMNSLKPEDTAVYYCSSWRTGFYEYWGQGTLVTVSSGGGGSGGGGSGGGGSGGGGSGGGGSGGGGSGGGGSEVQLVESGGGLVQAGGSLGLSCSASGLLFSRNSAGWYRQAPGKQREFVARIRMGGSINYADTVKGRFTISRDNAKNTVYLQMNSLKPEDTAVYYCSSWRTGFYEYWGQGTLVTVSS | 83 |

Entry A019400032 (VHH) DVQLVESGGGLVQAGGSLGLSCSASGLLFSRNSAGWYRQAPGKRREFVARIRMGGSINYADSVKGRFTVSRDNAKNMMYLQMNDLKPEDTAVYFCSGWREGFYEYWGQGTLVTVSSGGGGSGGGGSGGGGSGGGGSGGGGSGGGGSGGGGSEVQLVESGGGLVQAGGSLGLSCSASGLLFSRNSAGWYRQAPGKRREFVARIRMGGSINYADSVKGRFTVSRDNAKNMMYLQMNDLKPEDTAVYFCSGWREGFYEYWGQGTLVTVSS , IC50, IFNγ read out, CCR7-CD45RA- T cells stimulated with anti-CD3 reported as 69
